test: Metabolic stability in human plasma assessed as compound remaining measured at 2 hrs; assay type: ADME, cell-free; conditions: read-out: Stability
measured-attribute: remaining at 2 h (%)
# value in %; strip the unit string

Form field remaining at 2 h, entry CC(=O)N[C@H]1Cc2ccc(cc2)OCCCC[C@@H](C(=O)N[C@@H](CCCNC(=N)N)C(=O)c2nc3ccccc3s2)NC(=O)[C@H](Cc2c[nH]c3ccccc23)NC1=O : 67

Form field remaining at 2 h, entry CC(=O)N[C@H]1CCCCn2cc(nn2)C[C@H](C(=O)N[C@@H](CCCNC(=N)N)C(=O)c2nc3ccccc3s2)NC(=O)[C@H](CC(C)C)NC1=O : 83

Form field remaining at 2 h, entry CC(=O)N[C@H]1Cc2ccc(cc2)OC/C=C/C[C@@H](C(=O)N[C@@H](CCCNC(=N)N)C(=O)c2nc3ccccc3s2)NC(=O)[C@H](CC(C)C)NC1=O : 77

====

assay: Metabolic stability in human plasma assessed as half life; assay type: ADME, cell-free
measured-attribute: t1/2

Form field t1/2, entry CC(=O)N[C@H]1Cc2ccc(cc2)OC/C=C\CNC(=O)CC[C@@H](C(=O)N[C@@H](CCCNC(=N)N)C(=O)c2nc3ccccc3s2)NC(=O)[C@H](CC(C)C)NC1=O : > 4.82 h

Form field t1/2, entry CC(=O)N[C@H]1Cc2ccc(cc2)OCCCC[C@@H](C(=O)N[C@@H](CCCNC(=N)N)C(=O)c2nc3ccccc3s2)NC(=O)[C@H](Cc2c[nH]c3ccccc23)NC1=O : 3.82 h

Form field t1/2, entry CC(=O)N[C@H]1C/C=C/COc2ccc(cc2)C[C@@H](C(=O)N[C@@H](CCCNC(=N)N)C(=O)c2nc3ccccc3s2)NC(=O)[C@H](CC(C)C)NC1=O : 4.77 h

Form field t1/2, entry CC(=O)N[C@H]1Cc2ccc(cc2)OCCCC[C@@H](C(=O)N[C@@H](CCCNC(=N)N)C(=O)c2nc3ccccc3s2)NC(=O)[C@H](CC(C)C)NC1=O : > 4.82 h

Form field t1/2, entry CC(=O)N[C@H]1Cc2ccc(cc2)OC/C=C/C[C@@H](C(=O)N[C@@H](CCCNC(=N)N)C(=O)c2nc3ccccc3s2)NC(=O)[C@H](CC(C)C)NC1=O : > 4.82 h

Form field t1/2, entry CC(=O)N[C@H]1Cc2cn(nn2)CCCC[C@H](C(=O)N[C@@H](CCCNC(=N)N)C(=O)c2nc3ccccc3s2)NC(=O)[C@H](CC(C)C)NC1=O : > 4.82 h

Form field t1/2, entry CC(=O)N[C@H]1Cc2ccc(cc2)OCCCC[C@@H](C(=O)N[C@@H](CCCNC(=N)N)C(=O)c2nc3ccccc3s2)NC(=O)[C@@H](Cc2c[nH]c3ccccc23)NC1=O : 1.95 h

Form field t1/2, entry CC(=O)N[C@H]1Cc2ccc(cc2)OC/C=C\CNC(=O)C[C@@H](C(=O)N[C@@H](CCCNC(=N)N)C(=O)c2nc3ccccc3s2)NC(=O)[C@H](CC(C)C)NC1=O : > 4.82 h

Form field t1/2, entry CC(=O)N[C@H]1Cc2ccc(cc2)OCCCC[C@@H](C(=O)N[C@@H](CCCNC(=N)N)C(=O)c2nc3ccccc3s2)NC(=O)[C@H](Cc2ccccc2)NC1=O : 3.15 h

Form field t1/2, entry CC(=O)N[C@H]1CCCCn2cc(nn2)C[C@H](C(=O)N[C@@H](CCCNC(=N)N)C(=O)c2nc3ccccc3s2)NC(=O)[C@H](CC(C)C)NC1=O : > 4.82 h
